A collection of molecules and their measured IC50
# System: ATM-Deficient Colorectal Cancer LoVo Cell Lines
# Assay Protocol: In vitro anti-proliferation assay (ATPlite luminescence)
# Format: cell-based
# Test Conditions: Homo sapiens; LoVo cells; about 72 hours; 5% FBS
Provide the reading as a plain figure in nM.

Please report the recorded IC50 for C[C@@H]1COCCN1c1cc(C2([S@](C)(=N)=O)CC2)nc(-c2cc[nH]c3nccc2-3)n1 [AZD-6738, reference compound] .
800

Please report the recorded IC50 for C[C@@H]1COCCN1c1cc(C(C)(O)C(F)(F)F)nc(-c2ccnc3[nH]ccc23)n1 (stereo partly shown) [CY-257] .
830

Please report the recorded IC50 for C[C@@H]1COCCN1c1cc(C(C)(C)C#N)nc(-c2ccnc3[nH]ccc23)n1 [CY-237] .
480

Next molecule, IC50 to be filled in.
Please report the recorded IC50 for C[C@@H]1COCCN1c1cc(NCC2CC(F)(F)C2)nc(-c2ccnc3[nH]ccc23)n1 [CY-249] .
510

Origin of measurements: patent US11236089B2
